Hey, just so you know, these numbers are from patent US12441718B2.

ASSAYED SYSTEM: human recombinant AT1 receptor (Homo sapiens, UniProt P30556)
Sequence (P30556 whole entry): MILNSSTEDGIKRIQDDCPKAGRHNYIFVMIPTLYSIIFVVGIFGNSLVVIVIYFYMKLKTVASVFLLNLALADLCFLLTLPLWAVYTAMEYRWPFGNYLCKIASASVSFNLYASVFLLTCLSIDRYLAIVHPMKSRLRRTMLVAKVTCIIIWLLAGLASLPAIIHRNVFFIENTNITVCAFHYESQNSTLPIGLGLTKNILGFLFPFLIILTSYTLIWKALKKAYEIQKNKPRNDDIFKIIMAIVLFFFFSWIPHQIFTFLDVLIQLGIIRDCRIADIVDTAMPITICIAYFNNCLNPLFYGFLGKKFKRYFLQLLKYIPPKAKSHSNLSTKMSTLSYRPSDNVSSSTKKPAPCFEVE
TEST METHOD NOTES: Binding to AT1 receptor, radiometric scintillation assay (Eurofins ITEM24)
EXPERIMENTAL PARAMETERS: test compounds at 1 and 10 μM, ligand 125I(sar1,Ile8)-AT-II; * rows = mean of runs
# reported IC50; entries follow

SUBSTANCE SMILES: CC(C)Cc1cc(-c2ccc(Cn3ccnc3C3CC3)c(F)c2)c(S(=O)(=O)Nc2ncccn2)s1
ASSAYED SYSTEM: human recombinant AT1 receptor (Homo sapiens, UniProt P30556)
IC50 [µM]: 4.9
--
SUBSTANCE SMILES: CC(C)Cc1ccc(S(=O)(=O)Nc2ncc(F)cn2)c(-c2ccc(Cn3ccnc3C(C)(C)C)c(F)c2)c1
ASSAYED SYSTEM: human recombinant AT1 receptor (Homo sapiens, UniProt P30556)
IC50 [µM]: 5.2
--
SUBSTANCE SMILES: Cc1cnc(NS(=O)(=O)c2ccc(CC(C)C)cc2-c2ccc(Cn3ccnc3C(C)(C)C)cc2)nc1
ASSAYED SYSTEM: human recombinant AT1 receptor (Homo sapiens, UniProt P30556)
IC50 [µM]: 22.7
--
SUBSTANCE SMILES: CC(C)Cc1ccc(S(=O)(=O)Nc2ncc(C(F)(F)F)cn2)c(-c2ccc(Cn3ccnc3C(C)(C)C)cc2)c1
ASSAYED SYSTEM: human recombinant AT1 receptor (Homo sapiens, UniProt P30556)
IC50 [µM]: 6.2
--
SUBSTANCE SMILES: CC(C)Cc1ccc(S(=O)(=O)Nc2ncccn2)c(-c2ccc(Cn3ccnc3)c(F)c2)c1
ASSAYED SYSTEM: human recombinant AT1 receptor (Homo sapiens, UniProt P30556)
IC50 [µM]: 0.125
--
SUBSTANCE SMILES: Cc1nccn1Cc1ccc(-c2cc(CC(C)C)sc2S(=O)(=O)Nc2ncccn2)cc1
ASSAYED SYSTEM: human recombinant AT1 receptor (Homo sapiens, UniProt P30556)
IC50 [µM]: 35.1
--
SUBSTANCE SMILES: COc1cc(NS(=O)(=O)c2ccc(CC(C)C)cc2-c2ccc(Cn3ccnc3C(C)(C)C)c(F)c2)nc(OC)n1
ASSAYED SYSTEM: human recombinant AT1 receptor (Homo sapiens, UniProt P30556)
IC50 [µM]: 30.8
--
SUBSTANCE SMILES: CC(C)Cc1ccc(S(=O)(=O)Nc2ncc(F)cn2)c(-c2ccc(Cn3ccnc3C(C)(C)C)cc2)c1
ASSAYED SYSTEM: human recombinant AT1 receptor (Homo sapiens, UniProt P30556)
IC50 [µM]: 14.3
--
SUBSTANCE SMILES: Cc1nc(NS(=O)(=O)c2ccc(CC(C)C)cc2-c2ccc(Cn3ccnc3C(C)(C)C)c(F)c2)oc1C
ASSAYED SYSTEM: human recombinant AT1 receptor (Homo sapiens, UniProt P30556)
IC50 [µM]: 1.1
--
SUBSTANCE SMILES: COc1ncncc1NS(=O)(=O)c1ccc(CC(C)C)cc1-c1ccc(Cn2ccnc2C(C)(C)C)c(F)c1
ASSAYED SYSTEM: human recombinant AT1 receptor (Homo sapiens, UniProt P30556)
IC50 [µM]: 58.7
--
SUBSTANCE SMILES: CC(C)Cc1cc(-c2ccc(Cn3ccnc3C(C)C)cc2)c(S(=O)(=O)Nc2ncccn2)s1
ASSAYED SYSTEM: human recombinant AT1 receptor (Homo sapiens, UniProt P30556)
IC50 [µM]: 6.7
--
SUBSTANCE SMILES: CC(C)Cc1ccc(S(=O)(=O)Nc2ncc(C#N)cn2)c(-c2ccc(Cn3ccnc3C(C)(C)C)c(F)c2)c1
ASSAYED SYSTEM: human recombinant AT1 receptor (Homo sapiens, UniProt P30556)
IC50 [µM]: 1.7
--
SUBSTANCE SMILES: CCc1nccn1Cc1ccc(-c2cc(CC(C)C)sc2S(=O)(=O)Nc2ncccn2)cc1
ASSAYED SYSTEM: human recombinant AT1 receptor (Homo sapiens, UniProt P30556)
IC50 [µM]: 13.9
--
SUBSTANCE SMILES: CC(C)Cc1ccc(S(=O)(=O)Nc2ncccn2)c(-c2ccc(Cn3ccnc3C(C)(C)C)c(F)c2)c1
ASSAYED SYSTEM: human recombinant AT1 receptor (Homo sapiens, UniProt P30556)
IC50 [µM]: 15
